Cited source for all entries: ChEMBL document CHEMBL3603743

Entries and their IC50
molecular target: Histone deacetylase (HDAC1 and HDAC2) (Homo sapiens, UniProt Q13547+Q92769); assay: Inhibition of HDAC1/2 in human HeLa cells nuclear extracts using acetylated histone peptide as substrate after 30 mins by Color de Lys assay; type: cell-based
Numeric only. Scale: µM

                              sample_smiles   u  observed_measurement
0  O=C(NO)c1ccc(CN2C(=O)c3ccc(NC(=O)c4ccccc4)cc3S2(=O)=O)cc1  µM                  0.38
1  O=C(CCCN1C(=O)c2ccccc2S1(=O)=O)Nc1ccc(C(=O)NO)cc1  µM                 0.233
2  O=C(NO)c1ccc(CN2C(=O)c3ccccc3S2(=O)=O)cc1  µM                 1.398
3  O=C(Cc1ccccc1)Nc1ccc2c(c1)S(=O)(=O)N(Cc1ccc(C(=O)NO)cc1)C2=O  µM                  0.53
4  O=C(CCCN1C(=O)c2ccc(I)cc2S1(=O)=O)Nc1ccc(C(=O)NO)cc1  µM                 0.419
5  O=C(CCCN1C(=O)c2ccc([N+](=O)[O-])cc2S1(=O)=O)Nc1ccc(C(=O)NO)cc1  µM                  1.66

Output measured IC50 for this item: `COc1cc(C(=O)Nc2ccc3c(c2)S(=O)(=O)N(Cc2ccc(C(=O)NO)cc2)C3=O)cc(OC)c1OC` 1.71

Output measured IC50 for this item: `O=C(NO)c1ccc(CN2C(=O)c3ccc(-c4ccccc4)cc3S2(=O)=O)cc1` 0.386

Output measured IC50 for this item: `O=C(NO)c1ccc(CN2C(=O)c3ccc(NC(=O)c4ccc(C(F)(F)F)cc4)cc3S2(=O)=O)cc1` 1.413

Output measured IC50 for this item: `O=C(CCN1C(=O)c2ccc([N+](=O)[O-])cc2S1(=O)=O)Nc1ccc(C(=O)NO)cc1` 2.02

Output measured IC50 for this item: `O=C(CCCN1C(=O)c2ccc(-c3ccccc3)cc2S1(=O)=O)Nc1ccc(C(=O)NO)cc1` 1.51

Output measured IC50 for this item: `O=C(CCCCN1C(=O)c2ccccc2S1(=O)=O)NCc1ccc(C(=O)NO)cc1` 3.4

Output measured IC50 for this item: `O=C(CCN1C(=O)c2ccc(-c3ccccc3)cc2S1(=O)=O)Nc1ccc(C(=O)NO)cc1` 1.7

Output measured IC50 for this item: `O=C(CCN1C(=O)c2ccccc2S1(=O)=O)Nc1ccc(C(=O)NO)cc1` 0.3

Output measured IC50 for this item: `O=C(CCCCN1C(=O)c2ccc(I)cc2S1(=O)=O)Nc1ccc(C(=O)NO)cc1` 0.305

Output measured IC50 for this item: `O=C(CCCCCN1C(=O)c2ccccc2S1(=O)=O)NCc1ccc(C(=O)NO)cc1` 2.65

Output measured IC50 for this item: `O=C(NO)c1ccc(CN2C(=O)c3ccc(I)cc3S2(=O)=O)cc1` 1.335

Output measured IC50 for this item: `O=C(NO)c1ccc(CN2C(=O)c3ccc(NC(=O)c4ccc(F)cc4)cc3S2(=O)=O)cc1` 0.646

Output measured IC50 for this item: `Cc1ccc(/C=C/C(=O)Nc2ccc3c(c2)S(=O)(=O)N(Cc2ccc(C(=O)NO)cc2)C3=O)cc1` 1.297

Output measured IC50 for this item: `O=C(CCN1C(=O)c2ccccc2S1(=O)=O)NCc1ccc(C(=O)NO)cc1` 2.79

Output measured IC50 for this item: `O=C(CCN1C(=O)c2ccc(I)cc2S1(=O)=O)Nc1ccc(C(=O)NO)cc1` 0.523
